System: M14
Experiment: NCI tumour cell line growth inhibition, 48 h
Activity calls are given as the source filed them. Rule as the data show it: active = GI50 up to about 1.1 µM and inactive = higher. Where a SMILES comes first, the peptide text is derived from it.
Experimental readout: GI50

# Compound, Test system, GI50
measured = [
    ("CC1=NN(C(=O)c2ccccc2O)C(=O)/C1=C/c1cccc(O)c1", "M14", "0.446 µM (active)"),
    ("N=C1NC2(O)C(=O)c3ccccc3C2(O)N1 (centres undefined)", "M14", "> 100 µM (inactive)"),
    ("CCC(C)C1NC(=O)C2CCCN2C(=O)CNC(=O)C(C)NC(=O)C(Cc2ccccc2)NC(=O)C(C(C)C)NC1=O (centres undefined) (cyclo(GPIVFA); configuration not given here)", "M14", "> 100 µM (inactive)"),
    ("c1ccc(C2=NCCc3cc4c(cc32)OCO4)cc1", "M14", "> 100 µM (inactive)"),
    ("O=C(c1cccs1)N(C(=S)N1CCN(c2ccccn2)CC1)c1ccccc1", "M14", "76.7 µM (inactive)"),
    ("O=C(N/C(=C\\c1cc(Cl)ccc1Cl)c1nc2cc(Cl)ccc2[nH]1)c1ccccc1", "M14", "17.1 µM (inactive)"),
]

// query Report GI50 from M14 testing of CC(=O)NC1C(OC(C)C(=O)NC(C)C(=O)NC(CCC(=O)NCCCCCNc2ccc([N+](=O)[O-])c3[nH]c4ccccc4c(=O)c23)C(N)=O)C(O)C(CO)OC1(C)OCc1ccccc1 (centres undefined)
// result > 100 µM (inactive)

// query Report GI50 from M14 testing of `C[C@H](CCC(=O)O)[C@H]1CC[C@H]2[C@@H]3[C@@H](O)C[C@@H]4C[C@H](O)CC[C@]4(C)[C@H]3CC[C@]12C`
// result 95.3 µM (inactive)

// query Report GI50 from M14 testing of Fc1cccc(F)c1C1SCc2nc3cc(Cl)c(Cl)cc3n21 (centres undefined)
// result > 100 µM (inactive)

====

Listed here: items and their measured GI50.
Test system: SF-295
Assay: NCI tumour cell line growth inhibition, 48 h
The source made the active and inactive calls. Rule as the data show it: active = GI50 up to about 1.1 µM and inactive = higher.

Please review the entries below; each comes with its answer.
# Molecule, Experimental readout, Assay value
data = [
    ("OCCC/N=C1N=C(Cl)/C(=C\\c2ccccc2)N\\1", "GI50", "> 100 µM (inactive)"),
    ("COc1cc(/C=N/N=C(\\N)NO)ccc1O", "GI50", "26.1 µM (inactive)"),
    ("C/C=C\\C(CC(=O)NCCC1CN(S(=O)(=O)c2ccc(C)cc2)c2ccccc21)CC(=O)OC (stereo not given)", "GI50", "> 100 µM (inactive)"),
    ("C/C(Nc1ccc(Cl)cc1Cl)=C1/CCOC1=O", "GI50", "26.6 µM (inactive)"),
    ("COc1cc(C(=O)C/C(CCC(=O)Nc2ccc(Cl)cc2Cl)=N/Nc2nnc(C)n2N)ccc1O", "GI50", "> 100 µM (inactive)"),
]

// below: GI50 requested for another molecule
// query Tell me measured GI50 for CC1=CC(=O)C2=C(C)CCC3C(C)C(=O)OC3C12 (stereo not given) please.
// result > 100 µM (inactive)

====

Tested on: PC-3
Assay: NCI tumour cell line growth inhibition, 48 h
Calls of active or inactive are those of the source. Rule as the data show it: active = GI50 up to about 1.1 µM and inactive = higher.
Experimental readout: GI50

Please review the entries below; each comes with its answer.
# Compound, Test system, Assay value
data = [
    ("CNC(=O)OCC1=C(COC(=O)NC)CN(c2ccccc2)C1", "PC-3", "> 100 µM (inactive)"),
    ("CC1=Nc2ccccc2/C1=C\\c1c(C)[nH]c2ccccc12", "PC-3", "13.6 µM (inactive)"),
    ("CCOC(=O)C(NCc1ccc2c(c1)OCO2)(NC(=O)c1ccccc1)C(F)(F)F (stereo unspecified)", "PC-3", "65 µM (inactive)"),
    ("CC(C)(C)Nc1noc(=O)n1C(C)(C)C", "PC-3", "> 100 µM (inactive)"),
]

// below: GI50 requested for another compound
// query Tell me measured GI50 for `Nc1cnc(Nc2cccc3ccccc23)o1` please.
// result > 10 µM (inactive)
